Where these numbers come from: ChEMBL document CHEMBL3399921

Assignment: determine reported MIC for the given compounds.
Tested on: Mycobacterium tuberculosis
Test: Tuberculostatic activity against Mycobacterium tuberculosis Spec. 192 by two-fold classical test-tube method
Type: functional
Enter your answer as a number in µM; do not include the unit.

In: Field request: MIC | item: NC(=O)c1cnccn1 [PYRAZINAMIDE]
Out: 203

In: Cool, now `Cc1cc2nc(CCc3ccccc3)n(S(=O)(=O)c3ccccc3)c2cc1C`
Out: 64

In: Cool, now CO[C@H]1/C=C/O[C@@]2(C)Oc3c(C)c(O)c4c(O)c(c(/C=N/N5CCN(C)CC5)c(O)c4c3C2=O)NC(=O)/C(C)=C\C=C\[C@H](C)[C@H](O)[C@@H](C)[C@@H](O)[C@@H](C)[C@H](OC(C)=O)[C@@H]1C [RIFAMPIN]
Out: 1.4

In: Cool, now `Cc1cc2nc(CCc3ccccc3)n(S(C)(=O)=O)c2cc1C`
Out: 76

In: Cool, now `CS(=O)(=O)n1c(/C=C/c2ccccc2)nc2cc(F)ccc21`
Out: 158

In: Cool, now `Nc1c(NC(=O)CCc2cc(Cl)cc(Cl)c2)cc(Cl)cc1[N+](=O)[O-]`
Out: 8

In: Cool, now `O=S(=O)(c1ccccc1)n1c(CCc2cc(Cl)cc(Cl)c2)nc2cc(F)ccc21`
Out: 112

In: Cool, now `Fc1ccc2[nH]c(CCc3ccccc3)nc2c1`
Out: 208

In: Cool, now `C(=C\c1nc2cc3ccccc3cc2[nH]1)/c1ccccc1`
Out: 93
